Measured target: Amine oxidase [flavin-containing] A (Homo sapiens, UniProt P21397)
Sequence (P21397 whole entry): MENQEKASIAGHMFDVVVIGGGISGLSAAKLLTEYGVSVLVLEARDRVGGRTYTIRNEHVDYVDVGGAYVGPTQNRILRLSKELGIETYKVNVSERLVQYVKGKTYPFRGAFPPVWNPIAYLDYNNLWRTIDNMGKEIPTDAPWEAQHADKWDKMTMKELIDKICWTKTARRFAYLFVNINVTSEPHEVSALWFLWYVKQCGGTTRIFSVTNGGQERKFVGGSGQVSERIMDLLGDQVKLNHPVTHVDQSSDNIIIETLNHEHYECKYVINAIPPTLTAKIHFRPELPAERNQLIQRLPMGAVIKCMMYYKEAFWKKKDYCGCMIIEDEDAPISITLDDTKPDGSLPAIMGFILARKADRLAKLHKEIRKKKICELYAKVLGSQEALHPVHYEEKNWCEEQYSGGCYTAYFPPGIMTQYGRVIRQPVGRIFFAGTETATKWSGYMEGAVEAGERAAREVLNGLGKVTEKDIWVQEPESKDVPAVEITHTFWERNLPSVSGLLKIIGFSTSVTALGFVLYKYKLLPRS
Assay method text: Inhibition of recombinant human MAO-A expressed in baculovirus infected insect cells using kynuramine as substrate at 10 uM by fluorescence based method relative to control
Condition description: Insect cell
Measured attribute: inhibition at 10 µM (%)

| Smiles code | Measured target | Readout unit | inhibition at 10 µM |
| --- | --- | --- | --- |
| O=C(NC1CCCC1)c1nc2ccc(O)cc2s1 | Amine oxidase [flavin-containing] A (Homo sapiens, UniProt P21397) | % | 35 |
| COc1ccc(CNC(=O)c2nc3ccc(O)cc3s2)c(OC)c1 | Amine oxidase [flavin-containing] A (Homo sapiens, UniProt P21397) | % | 26 |
| O=C(NCC(c1ccccc1)c1ccccc1)c1nc2ccc(O)cc2s1 | Amine oxidase [flavin-containing] A (Homo sapiens, UniProt P21397) | % | 13 |
| O=C(NCc1ccccc1)c1nc2ccc(O)cc2s1 | Amine oxidase [flavin-containing] A (Homo sapiens, UniProt P21397) | % | 18 |
| CCCCCCNC(=O)c1nc2ccc(O)cc2s1 | Amine oxidase [flavin-containing] A (Homo sapiens, UniProt P21397) | % | 37 |

A: COc1cccc(CNC(=O)c2nc3ccc(O)cc3s2)c1OC
B: O=C(NCc1cc(C(F)(F)F)cc(C(F)(F)F)c1)c1nc2ccc(O)cc2s1
C: COc1cc(CNC(=O)c2nc3ccc(O)cc3s2)cc(OC)c1
D: O=C(c1nc2ccc(O)cc2s1)N1CCc2ccccc2C1
Please list the entries, largest inhibition at 10 µM first. The labels, placed in the requested order, form the answer.
C, B, D, A
(C: 43%, B: 26%, D: 17%, A: 11%)

P: COc1ccc(CNC(=O)c2nc3ccc(O)cc3s2)cc1OC
Q: O=C(NC1CCCCC1)c1nc2ccc(O)cc2s1
R: Cc1cccc(CNC(=O)c2nc3ccc(O)cc3s2)c1
Please order the records by their reported inhibition at 10 µM, lowest number first. The labels, placed in the requested order, form the answer.
P, R, Q
(P: 13%, R: 19%, Q: 32%)

a: O=C(NCc1ccc(F)cc1F)c1nc2ccc(O)cc2s1
b: O=C(NC1CC1)c1nc2ccc(O)cc2s1
Lower value for measured inhibition at 10 µM? Options: a , b Your answer should be the label attached to the chosen record.
b

A: O=C(NCc1ccc(F)c(F)c1)c1nc2ccc(O)cc2s1
B: O=C(NCc1ccco1)c1nc2ccc(O)cc2s1
Exercise: compare A and B ; which one has the greater inhibition at 10 µM? Your answer should be the label attached to the chosen record.
A

----------
Measured target: UniProt P21397
Assay method text: Inhibition of recombinant human MAO-A expressed in baculovirus infected insect cells using kynuramine as substrate at 10 uM by fluorescence based method relative to control
Condition description: Insect cell
Measured attribute: inhibition at 10 µM (%)

| Smiles code | Obs value |
| --- | --- |
| O=C(NCc1ccccc1Cl)c1nc2ccc(O)cc2s1 | 24 |
| O=C(NCC1CCCCC1)c1nc2ccc(O)cc2s1 | 32 |

a: O=C(NC1CCCCC1)c1nc2ccccc2s1
b: O=C(c1nc2ccc(O)cc2s1)N1CCCCC1
Lower value for measured inhibition at 10 µM? Options: a , b Your answer should be the label attached to the chosen record.
b
(b: 16%, a: 26%)

1: Cc1cc(C)cc(CNC(=O)c2nc3ccc(O)cc3s2)c1
2: COc1cccc(CNC(=O)c2nc3ccc(O)cc3s2)c1
Lower value for measured inhibition at 10 µM? Options: 1 , 2 Your answer should be the label attached to the chosen record.
2

A: O=C(NCCc1ccccc1)c1nc2ccc(O)cc2s1
B: O=C(c1nc2ccc(O)cc2s1)N1Cc2ccc(Cl)cc2C1
Lower value for measured inhibition at 10 µM? Options: A , B Your answer should be the label attached to the chosen record.
B
